Source of measurements: patent US8088806B2

- Test system: HCV replicon
- TEST METHOD NOTES: Replicon based assay of HCV replication inhibition (NPT ELISA)
- Format: cell-based, Hepatitis C virus
- ASSAY CONDITIONS: Hepatitis C virus, replicon based assay of HCV replication inhibition; Table IV; read-out: Activity
READOUT NAME: EC50

Previously resolved entries follow.
query_smiles=COc1ncc(-c2csc(Nc3ccc(OCCCCc4ccccc4)c(C(F)(F)F)c3)n2)cn1 experimental_value="< 1 µM"
query_smiles=c1cncc(-c2csc(Nc3ccc4nccnc4c3)n2)c1 experimental_value="> 10 µM"
query_smiles=CCCCCCCCS(=O)(=O)c1ccc(Nc2nc(-c3cccnc3)cs2)cc1C(F)(F)F experimental_value="< 1 µM"
query_smiles=Fc1ccc(Cn2ccc3ccc(Nc4nc(-c5ccc(F)cc5)cs4)cc32)cc1 experimental_value="< 1 µM"
query_smiles=CCCCCCCCOc1ccc(Nc2nc(-c3cccc(C(=O)OCC)n3)cs2)cc1C(F)(F)F experimental_value="< 1 µM"
query_smiles=CCCCCCCCOc1ccc(Nc2nc(C(=O)CSc3ncc[nH]3)cs2)cc1C(F)(F)F experimental_value="1 to 10 µM"
query_smiles=FC(F)(F)c1ccc(-c2cc(Nc3nc(-c4cccnc4)cs3)on2)cc1 experimental_value="> 10 µM"
query_smiles=Fc1ccc(Nc2nc(-c3cccnc3)cs2)cc1C(F)(F)F experimental_value="1 to 10 µM"

Dear reader, for each entry below, please note its EC50.
1. CC(C)=CCC/C(C)=C/COc1ccc(Nc2nc(-c3ccc(F)cc3)cs2)cc1C(F)(F)F
2. CC(C)(C)c1ccc(Nc2nc(-c3cccnc3)cs2)cc1
3. N#Cc1ccc(Nc2nc(-c3cccnc3)cs2)cc1
4. CCN(CC)C(=O)c1cccc(Nc2nc(-c3cccnc3)cs2)c1
5. FC(F)(F)c1cc(Nc2nc(-c3cccnc3)cs2)ccc1OCCOc1ccccc1
6. c1cncc(-c2csc(Nc3ccc4[nH]ncc4c3)n2)c1

[A]
> 10 µM
1 to 10 µM
1 to 10 µM
> 10 µM
< 1 µM
> 10 µM
